- System: NCI-H2228
- method notes: Antiproliferative activity against human NCI-H2228 cells assessed as reduction in cell viability measured after 72 hrs by MTT assay
- applied conditions: NCI-H2228, 72 h
assay readout: IC50 (µM)

1) Cc1cc(Nc2ncc(Cl)c(Nc3ccccc3S(=O)(=O)C(C)C)n2)c(OC(C)C)cc1C1CCN(CCC(=O)NCCOCCOCCNCC(=O)Nc2cccc3c2C(=O)N(C2CCC(=O)NC2=O)C3=O)CC1 (centres undefined)    4.51

(1) Cc1cc(Nc2ncc(Cl)c(Nc3ccccc3S(=O)(=O)C(C)C)n2)c(OC(C)C)cc1C1CCN(CCC(=O)NCCOCCNCCC(=O)Nc2cccc3c2C(=O)N(C2CCC(=O)NC2=O)C3=O)CC1 (centres undefined)
(2) Cc1cc(Nc2ncc(Cl)c(Nc3ccccc3S(=O)(=O)C(C)C)n2)c(OC(C)C)cc1C1CCN(CCC(=O)NCCOCCOCCNc2cccc3c2C(=O)N(C2CCC(=O)NC2=O)C3=O)CC1 (centres undefined)
(3) Cc1cc(Nc2ncc(Cl)c(Nc3ccccc3S(=O)(=O)C(C)C)n2)c(OC(C)C)cc1C1CCNCC1 [CERITINIB]
// query In this exercise, place the 3 compounds in ascending sequence of their recorded IC50. Output spec: a listing of the labels in the requested order.
// result 3, 2, 1

Measured values drawn from ChEMBL document CHEMBL4732145 for this set.
